The values you see were collected from ChEMBL document CHEMBL1133277.

Test system: SK-OV-3
Test: In vitro cytotoxicity of compound was determined against SKOV-3 cell lines at 37 degree C after 96 hr
Assay type: functional, Homo sapiens
Binary call on Cytotoxicity with cut-off 0.2 µM: strictly below means y, and equality or higher means n.

# example entries with known answers
COC(=O)CC1=CN2C(=O)c3cc(OC)c(OC)cc3N=C[C@@H]2C1; n
COc1cc2c(cc1OCc1ccccc1)N=C[C@@H]1CC(CCO)=CN1C2=O; y
COC(=O)CC1=CN2C(=O)c3cc(OC)c(OCc4ccccc4)cc3N=C[C@@H]2C1; y
COc1cc2c(cc1OCc1ccccc1)N=C[C@@H]1CC(CCOC(C)=O)=CN1C2=O; n
Cc1ccc2c(c1O)N=C[C@@H]1CC(/C=C/C(N)=O)=CN1C2=O; y

Query: # TODO verify Cytotoxicity < 0.2 µM strictly for this compound: COc1cc2c(cc1OCc1ccccc1)N=C[C@@H]1CC(CC#N)=CN1C2=O
Reply: n

Query: # TODO verify Cytotoxicity < 0.2 µM strictly for this compound: COc1cc2c(cc1OCc1ccccc1)N=C[C@@H]1CCCN1C2=O
Reply: n

* * *

Tested on: A2780
Assay: In vitro cytotoxicity of compound was determined against A2780 cell lines (cisplatin resistant) at 37 degree C after 96 hr
Assay type: functional, Homo sapiens
I would appreciate it if you labelled entries met when Cytotoxicity is 0.2 µM or higher, otherwise not met.

Cc1ccc2c(c1O)N=C[C@@H]1CC(/C=C/C(N)=O)=CN1C2=O; not met
COc1cc2c(cc1OCc1ccccc1)N=C[C@@H]1CC(CCO)=CN1C2=O; not met

Query: Identify whether the reported Cytotoxicity of the following molecule is 0.2 µM or greater: COC(=O)CC1=CN2C(=O)c3cc(OC)c(OCc4ccccc4)cc3N=C[C@@H]2C1
Reply: not met

Query: Identify whether the reported Cytotoxicity of the following molecule is 0.2 µM or greater: COc1cc2c(cc1OCc1ccccc1)N=C[C@@H]1CC(CCOC(C)=O)=CN1C2=O
Reply: met

Query: Identify whether the reported Cytotoxicity of the following molecule is 0.2 µM or greater: COc1cc2c(cc1OCc1ccccc1)N=C[C@@H]1CCCN1C2=O
Reply: met

Query: Identify whether the reported Cytotoxicity of the following molecule is 0.2 µM or greater: COC(=O)CC1=CN2C(=O)c3cc(OC)c(OC)cc3N=C[C@@H]2C1
Reply: met

Query: Identify whether the reported Cytotoxicity of the following molecule is 0.2 µM or greater: COc1cc2c(cc1OCc1ccccc1)N=C[C@@H]1CC(CC#N)=CN1C2=O
Reply: met

* * *

System: Nucleic Acid
Assay: Change in temperature (thermal denaturation) was determined from calf thymus DNA at 37 degree Celsius for 18 hours
Format: functional
Conditions: Bos taurus
Let's look at some compounds and their measured ΔTm.
# output: number + unit

Lab note: measured ΔTm of COc1cc2c(cc1OCc1ccccc1)N=C[C@@H]1CCCN1C2=O was 0.4 °C

Lab note: measured ΔTm of COc1cc2c(cc1OCc1ccccc1)N=C[C@@H]1CC(CCOC(C)=O)=CN1C2=O was 2.53 °C

Lab note: measured ΔTm of COc1cc2c(cc1OCc1ccccc1)N=C[C@@H]1CC(CCO)=CN1C2=O was 5.6 °C

Lab note: measured ΔTm of COc1cc2c(cc1OCc1ccccc1)N=C[C@@H]1CC(CC#N)=CN1C2=O was 4.31 °C

Lab note: measured ΔTm of Cc1ccc2c(c1O)N=C[C@@H]1CC(/C=C/C(N)=O)=CN1C2=O was 13 °C
